# Test system: 422866-222-R5-J1-PDC complex spheroids viability
# assay method text: Anticancer human tumor 422866-222-R5-J1-PDC patient-derived pancreatic adenocarcinoma cell line growth inhibition [RAS]
# run conditions: second compound 0.316 µM; first compound 0.0316 µM; active compounds read low

compound: NC1c2ccccc2OC12CCN(c1cnc3c(N4CCCc5ncccc54)n[nH]c3n1)CC2 (stereo not drawn) + C#Cc1c(F)ccc2cc(O)cc(-c3ncc4c(N5CC6CCC(C5)N6)nc(OCC56CCCN5CC(F)C6)nc4c3F)c12
tgt: 422866-222-R5-J1-PDC complex spheroids viability
viability, T/C / %: 38.1
//
compound: CC(C)n1nc(-c2ccc3oc(N)nc3c2)c2c(N)ncnc21 + C=CC(=O)N1CCN(c2nc(OCC3CCCN3C)nc3c(F)c(-c4nc(N)cc(C)c4C(F)(F)F)c(Cl)cc23)C(C)C1
tgt: 422866-222-R5-J1-PDC complex spheroids viability
viability, T/C / %: 13.6
//
compound: Cc1nc(N2CCC3(CC2)COC(C)C3N)c(CO)nc1Sc1ccnc(N)c1Cl (stereo not drawn) + C#Cc1c(F)ccc2cc(O)cc(-c3ncc4c(N5CC6CCC(C5)N6)nc(OCC56CCCN5CC(F)C6)nc4c3F)c12
tgt: 422866-222-R5-J1-PDC complex spheroids viability
viability, T/C / %: 62.4

###

# System: 422866-222-R5-J1-PDC complex spheroids viability
# assay method text: Anticancer human tumor 422866-222-R5-J1-PDC cell line growth inhibition [RAS]; active means viability on the fitted dose curve at most 10% of control; inactive means the rest;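 further: spheroids exposed to compounds for 7 days; 100% = DMSO vehicle control viability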
# run conditions: second compound 0.0316 µM; first compound 10 µM
Possible outcomes: label 1 for active, label 0 for inactive

compound: CC(Nc1ccc2c(c1)OCCn1cc(N3C(=O)OCC3C(F)F)nc1-2)C(N)=O (stereo not drawn) + C#Cc1c(F)ccc2cc(O)cc(-c3ncc4c(N5CC6CCC(C5)N6)nc(OCC56CCCN5CC(F)C6)nc4c3F)c12
label value: label 0
--
compound: Cc1nc(N2CCC3(CC2)COC(C)C3N)c(CO)nc1Sc1ccnc(N)c1Cl (stereo not drawn) + C#Cc1c(F)ccc2cc(O)cc(-c3ncc4c(N5CC6CCC(C5)N6)nc(OCC56CCCN5CC(F)C6)nc4c3F)c12
label value: label 0
--
compound: CC(=O)OC12COC1CC(O)C1(C)C(=O)C(O)C3=C(C)C(OC(=O)C(O)C(NC(=O)OC(C)(C)C)c4ccccc4)CC(O)(C(OC(=O)c4ccccc4)C21)C3(C)C (stereo not drawn) + C#Cc1c(F)ccc2cc(O)cc(-c3ncc4c(N5CC6CCC(C5)N6)nc(OCC56CCCN5CC(F)C6)nc4c3F)c12
label value: label 0
--
compound: CC1(O)CCCC1n1c(=O)c(C(F)F)cc2cnc(NC3CCN(S(C)(=O)=O)CC3)nc21 (stereo not drawn) + C#Cc1c(F)ccc2cc(O)cc(-c3ncc4c(N5CC6CCC(C5)N6)nc(OCC56CCCN5CC(F)C6)nc4c3F)c12
label value: label 0
--
compound: CC(Nc1ccc2c(c1)OCCn1cc(N3C(=O)OCC3C(F)F)nc1-2)C(N)=O (stereo not drawn) + C=CC(=O)N1CCN(c2nc(OCC3CCCN3C)nc3c(F)c(-c4nc(N)cc(C)c4C(F)(F)F)c(Cl)cc23)C(C)C1
label value: label 1
--
compound: NC1c2ccccc2OC12CCN(c1cnc3c(N4CCCc5ncccc54)n[nH]c3n1)CC2 (stereo not drawn) + C=CC(=O)N1CCN(c2nc(OCC3CCCN3C)nc3c(F)c(-c4nc(N)cc(C)c4C(F)(F)F)c(Cl)cc23)C(C)C1
label value: label 0
--
compound: CC(C)NCC(C(=O)N1CCN(c2ncnc3c2C(C)CC3O)CC1)c1ccc(Cl)cc1 (stereo not drawn) + C=CC(=O)N1CCN(c2nc(OCC3CCCN3C)nc3c(F)c(-c4nc(N)cc(C)c4C(F)(F)F)c(Cl)cc23)C(C)C1
label value: label 0
--
compound: C[C@@H](NC(=O)c1ncnc(N)c1Cl)c1ncc(C(=O)Nc2cc(C(F)(F)F)c(Cl)cn2)s1 + C#Cc1c(F)ccc2cc(O)cc(-c3ncc4c(N5CC6CCC(C5)N6)nc(OCC56CCCN5CC(F)C6)nc4c3F)c12
label value: label 0

###

# Test system: 422866-222-R5-J1-PDC complex spheroids viability
# assay method text: Anticancer human tumor 422866-222-R5-J1-PDC cell line growth inhibition [RAS];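 further: spheroids exposed to compounds for 7 days; 100% = DMSO vehicle control viability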
# run conditions: second compound 0.0949 µM; first compound 0.316 µM; active compounds read low
In this section, each of the compounds is paired with its reported viability, T/C.
experimental readout: viability, T/C (%)

compound: CCN1CCN(Cc2ccc(Nc3ncc(F)c(-c4cc(F)c5nc(C)n(C(C)C)c5c4)n3)nc2)CC1 + CCn1c(-c2cc(N3CCN(C)CC3)cnc2C(C)OC)c2c3cc(ccc31)-c1csc(n1)CC(NC(=O)C1CC1C)C(=O)N1CCCC(N1)C(=O)OCC(C)(C)C2
experimental readout: viability, T/C
readout unit: %
observed result: 24.5
//
compound: CCC(CC)c1cc(NC2CCC(N)C2)n2nccc2n1 (stereo not given) + CCn1c(-c2cccnc2C(C)OC)c2c3cc(ccc31)N1CCOC(CC(NC(=O)C(C(C)C)N(C)C(=O)C3(F)CCN(C(=O)C#CC(C)(C)N(C)C)CC3)C(=O)N3CCCC(N3)C(=O)OCC(C)(C)C2)C1
experimental readout: viability, T/C
readout unit: %
observed result: 22.4
//
compound: O=C(c1ccc(F)c(F)c1Nc1ccc(I)cc1F)N1CC(O)([C@@H]2CCCCN2)C1 + CCn1c(-c2cc(N3CCN(C)CC3)cnc2C(C)OC)c2c3cc(ccc31)-c1csc(n1)CC(NC(=O)C1CC1C)C(=O)N1CCCC(N1)C(=O)OCC(C)(C)C2
experimental readout: viability, T/C
readout unit: %
observed result: 14.5
//
compound: CC(=O)OC12COC1CC(O)C1(C)C(=O)C(O)C3=C(C)C(OC(=O)C(O)C(NC(=O)OC(C)(C)C)c4ccccc4)CC(O)(C(OC(=O)c4ccccc4)C21)C3(C)C (stereo not given) + CCn1c(-c2cccnc2C(C)OC)c2c3cc(ccc31)N1CCOC(CC(NC(=O)C(C(C)C)N(C)C(=O)C3(F)CCN(C(=O)C#CC(C)(C)N(C)C)CC3)C(=O)N3CCCC(N3)C(=O)OCC(C)(C)C2)C1
experimental readout: viability, T/C
readout unit: %
observed result: 15.3
//
compound: CC(=O)OC12COC1CC(O)C1(C)C(=O)C(O)C3=C(C)C(OC(=O)C(O)C(NC(=O)OC(C)(C)C)c4ccccc4)CC(O)(C(OC(=O)c4ccccc4)C21)C3(C)C (stereo not given) + CCn1c(-c2cc(N3CCN(C)CC3)cnc2C(C)OC)c2c3cc(ccc31)-c1csc(n1)CC(NC(=O)C1CC1C)C(=O)N1CCCC(N1)C(=O)OCC(C)(C)C2
experimental readout: viability, T/C
readout unit: %
observed result: 18.7
//
compound: C=CC(=O)N1CCN(c2nc(OCC3CCCN3C)nc3c(F)c(-c4nc(N)cc(C)c4C(F)(F)F)c(Cl)cc23)C(C)C1 (stereo not given) + CCn1c(-c2cccnc2C(C)OC)c2c3cc(ccc31)N1CCOC(CC(NC(=O)C(C(C)C)N(C)C(=O)C3(F)CCN(C(=O)C#CC(C)(C)N(C)C)CC3)C(=O)N3CCCC(N3)C(=O)OCC(C)(C)C2)C1
experimental readout: viability, T/C
readout unit: %
observed result: 19.7
//
compound: NC1c2ccccc2OC12CCN(c1cnc3c(N4CCCc5ncccc54)n[nH]c3n1)CC2 (stereo not given) + CCn1c(-c2cc(N3CCN(C)CC3)cnc2C(C)OC)c2c3cc(ccc31)-c1csc(n1)CC(NC(=O)C1CC1C)C(=O)N1CCCC(N1)C(=O)OCC(C)(C)C2
experimental readout: viability, T/C
readout unit: %
observed result: 16.9
//
compound: C[C@@H](NC(=O)c1ncnc(N)c1Cl)c1ncc(C(=O)Nc2cc(C(F)(F)F)c(Cl)cn2)s1 + CCn1c(-c2cccnc2C(C)OC)c2c3cc(ccc31)N1CCOC(CC(NC(=O)C(C(C)C)N(C)C(=O)C3(F)CCN(C(=O)C#CC(C)(C)N(C)C)CC3)C(=O)N3CCCC(N3)C(=O)OCC(C)(C)C2)C1
experimental readout: viability, T/C
readout unit: %
observed result: 21.8
//
compound: CC(Nc1ccc2c(c1)OCCn1cc(N3C(=O)OCC3C(F)F)nc1-2)C(N)=O (stereo not given) + CCn1c(-c2cccnc2C(C)OC)c2c3cc(ccc31)N1CCOC(CC(NC(=O)C(C(C)C)N(C)C(=O)C3(F)CCN(C(=O)C#CC(C)(C)N(C)C)CC3)C(=O)N3CCCC(N3)C(=O)OCC(C)(C)C2)C1
experimental readout: viability, T/C
readout unit: %
observed result: 8.36
//
compound: Nc1ccn(C2OC(CO)C(O)C2(F)F)c(=O)n1 (stereo not given) + CCn1c(-c2cccnc2C(C)OC)c2c3cc(ccc31)N1CCOC(CC(NC(=O)C(C(C)C)N(C)C(=O)C3(F)CCN(C(=O)C#CC(C)(C)N(C)C)CC3)C(=O)N3CCCC(N3)C(=O)OCC(C)(C)C2)C1
experimental readout: viability, T/C
readout unit: %
observed result: 13.3
//
compound: CC(C)NCC(C(=O)N1CCN(c2ncnc3c2C(C)CC3O)CC1)c1ccc(Cl)cc1 (stereo not given) + CCn1c(-c2cccnc2C(C)OC)c2c3cc(ccc31)N1CCOC(CC(NC(=O)C(C(C)C)N(C)C(=O)C3(F)CCN(C(=O)C#CC(C)(C)N(C)C)CC3)C(=O)N3CCCC(N3)C(=O)OCC(C)(C)C2)C1
experimental readout: viability, T/C
readout unit: %
observed result: 11.8
//
compound: C[C@@H](NC(=O)c1ncnc(N)c1Cl)c1ncc(C(=O)Nc2cc(C(F)(F)F)c(Cl)cn2)s1 + CCn1c(-c2cc(N3CCN(C)CC3)cnc2C(C)OC)c2c3cc(ccc31)-c1csc(n1)CC(NC(=O)C1CC1C)C(=O)N1CCCC(N1)C(=O)OCC(C)(C)C2
experimental readout: viability, T/C
readout unit: %
observed result: 21.1
//
compound: CC(C)NCC(C(=O)N1CCN(c2ncnc3c2C(C)CC3O)CC1)c1ccc(Cl)cc1 (stereo not given) + CCn1c(-c2cc(N3CCN(C)CC3)cnc2C(C)OC)c2c3cc(ccc31)-c1csc(n1)CC(NC(=O)C1CC1C)C(=O)N1CCCC(N1)C(=O)OCC(C)(C)C2
experimental readout: viability, T/C
readout unit: %
observed result: 13.1
//
compound: CCC(CC)c1cc(NC2CCC(N)C2)n2nccc2n1 (stereo not given) + CCn1c(-c2cc(N3CCN(C)CC3)cnc2C(C)OC)c2c3cc(ccc31)-c1csc(n1)CC(NC(=O)C1CC1C)C(=O)N1CCCC(N1)C(=O)OCC(C)(C)C2
experimental readout: viability, T/C
readout unit: %
observed result: 26.9
//
compound: CCN1CCN(Cc2ccc(Nc3ncc(F)c(-c4cc(F)c5nc(C)n(C(C)C)c5c4)n3)nc2)CC1 + CCn1c(-c2cccnc2C(C)OC)c2c3cc(ccc31)N1CCOC(CC(NC(=O)C(C(C)C)N(C)C(=O)C3(F)CCN(C(=O)C#CC(C)(C)N(C)C)CC3)C(=O)N3CCCC(N3)C(=O)OCC(C)(C)C2)C1
experimental readout: viability, T/C
readout unit: %
observed result: 27.5
